Each recorded value in this set is attributed to paper PMC11050443.

tested on: NIH-3T3 fibroblasts; assay: In vitro cytotoxicity assay of mammalian NIH-3T3 fibroblasts (Alamar blue); format: cell-based; conditions: NIH-3T3 fibroblast growth inhibition, host cell toxicity; 4 days; N = 3

compound	measuredOn	NIH-3T3 TC50 [µM]
CCOc1ccc(C2Oc3c(Cl)cc(Cl)cc3C=C2[N+](=O)[O-])cc1OCC (centres unmarked) [Compound 9]	NIH-3T3 fibroblasts	17.5
O=[N+]([O-])C1=Cc2cc(Br)cc(Br)c2OC1c1c(Cl)cccc1Cl (centres unmarked) [Compound 7]	NIH-3T3 fibroblasts	11.9
CCOc1ccc(C2Oc3ccc(Br)cc3C=C2[N+](=O)[O-])cc1OC (centres unmarked) [Compound 1]	NIH-3T3 fibroblasts	16.0
O=[N+]([O-])C1=Cc2ccccc2OC1c1ccccc1Cl (centres unmarked) [Compound 12, 2-(2-Chlorophenyl)-3-nitro-2H -chromene]	NIH-3T3 fibroblasts	10.9
CCOc1ccc(C2Oc3ccccc3C=C2[N+](=O)[O-])cc1OCC (centres unmarked) [Compound 10]	NIH-3T3 fibroblasts	9.45
COc1ccc(C2Oc3ccc(Br)cc3C=C2[N+](=O)[O-])cc1OC (centres unmarked) [Compound 4]	NIH-3T3 fibroblasts	16.4
COc1ccc(C2Oc3c(cc(Br)cc3OC)C=C2[N+](=O)[O-])cc1OC (centres unmarked) [Compound 3]	NIH-3T3 fibroblasts	17.5
CCOc1ccc(C2Oc3c(Br)cc(Br)cc3C=C2[N+](=O)[O-])cc1OC (centres unmarked) [Compound 6]	NIH-3T3 fibroblasts	18.1
